# Tested on: D54 ERlucT glycosylation luciferase reporter, luminescence, 24 h
# Assay Explanation: N-linked glycosylation inhibitors, luciferase reporter, dose response, D54 ERlucT cells, luminescence, cherry-picks (AID 624491);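 further: signal gain reflects blocked N-linked glycosylation of a luciferase reporter; actives raise luciferase signal so AC26 marks activators of the reporter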
Property: AC26

>>> df
                                   compound  property  reported
0  Nc1nonc1C(=O)N/N=C/c1ccc([N+](=O)[O-])o1      AC26   6.16 µM
1  Cc1ccc(Nc2nnc(SCC(=O)Nc3ncc(S(=O)(=O)c4ccc([N+](=O)[O-])cc4)s3)s2)cc1      AC26   9.03 µM

Notebook entry, D54 ERlucT glycosylation luciferase reporter, luminescence, 24 h assay: AC26 of COc1ccc(OC)c(NS(=O)(=O)c2ccc(SC)cc2)c1 = ?
7.41 µM

Notebook entry, D54 ERlucT glycosylation luciferase reporter, luminescence, 24 h assay: AC26 of Cc1cc(NC(=O)CSc2nc3sc(C)c(C)c3c(=O)n2C2CCCC2)no1 = ?
4.7 µM

Notebook entry, D54 ERlucT glycosylation luciferase reporter, luminescence, 24 h assay: AC26 of COc1ccc(Cl)cc1NC(=O)CN(C)CC(=O)Nc1ccccc1N1CCOCC1 = ?
0.658 µM

Notebook entry, D54 ERlucT glycosylation luciferase reporter, luminescence, 24 h assay: AC26 of COc1cc(CN2CCc3ccccc3C2)ccc1O = ?
0.696 µM

Notebook entry, D54 ERlucT glycosylation luciferase reporter, luminescence, 24 h assay: AC26 of COCCCNc1nnc(Cc2ccc(Cl)cc2)c(=O)[nH]1 = ?
1.05 µM

Notebook entry, D54 ERlucT glycosylation luciferase reporter, luminescence, 24 h assay: AC26 of C=CCN(CC=C)S(=O)(=O)c1ccc(C(=O)Nc2nc3c(s2)CCc2ccccc2-3)cc1 = ?
6.79 µM

====

Documented AC26 across a set of compounds
# Tested on: D54 ERlucT glycosylation luciferase reporter, luminescence, 24 h
# Assay Explanation: N-linked glycosylation inhibitors, luciferase reporter, dose response, D54 ERlucT cells, luminescence, cherry-picks (AID 624491);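 further: signal gain reflects blocked N-linked glycosylation of a luciferase reporter; actives raise luciferase signal so AC26 marks activators of the reporter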

Known AC26 results, listed for orientation:
In [3]: df
Out[3]:
                                   compound                              assay_target  property  reported
0  O=C(N/N=C\c1ccc(CNS(=O)(=O)c2ccc(Cl)cc2)o1)C(=O)Nc1ccc(Oc2ccccc2)cc1  D54 ERlucT glycosylation luciferase reporter, luminescence, 24 h      AC26   4890 nM
1  COC(=O)c1[nH]c2cc(OC)c(OC)cc2c1/C=N/Nc1ccccc1  D54 ERlucT glycosylation luciferase reporter, luminescence, 24 h      AC26   6360 nM
2  O=C(NC1CCCCCC1)c1c2c(nc3ccccc13)CCN(Cc1ccccc1)C2  D54 ERlucT glycosylation luciferase reporter, luminescence, 24 h      AC26   5800 nM
3  COc1cc(NC(=O)c2noc(C)c2[N+](=O)[O-])c(OC)cc1Cl  D54 ERlucT glycosylation luciferase reporter, luminescence, 24 h      AC26    632 nM
4  COc1ccc(NC(=O)c2cc3c(=O)n(C)c4ccccc4c3n2C)cc1OC  D54 ERlucT glycosylation luciferase reporter, luminescence, 24 h      AC26   2940 nM
5  Cn1c(=O)[nH]c(=O)c2c1nc(N(CCO)Cc1ccccc1)n2CCCc1ccccc1  D54 ERlucT glycosylation luciferase reporter, luminescence, 24 h      AC26    800 nM

Look up AC26 for this compound: Cc1cc(Cl)ccc1OCCCC(=O)NO
2730 nM

Look up AC26 for this compound: COc1ccc2c(c1)[C@H]1[C@H](CO2)[C@H](c2ccccc2)[C@]2(C)C(=O)Nc3cc(C)ccc3C(=O)N12
51.9 nM

Look up AC26 for this compound: COc1cccc(/C=N/NC(=O)c2ccc(N3CCCC3=O)cc2)c1
3350 nM

Look up AC26 for this compound: O=C(CCl)Nc1ccc(Sc2ccc(NC(=O)CCl)cc2)cc1
667 nM
